Consider the following IC50 data for NAMPT (Homo sapiens, UniProt P43490), collected from several reports.
Numeric only. Scale: nM

Data request: Would you please give the reported IC50 of O=C(NCc1ccc2nccn2c1)c1cnc(N(CC2CCCO2)C(=O)CCc2ccno2)s1 (centres unmarked) with NAMPT (Homo sapiens, UniProt P43490)?
Data returned: 0.709

Data request: Would you please give the reported IC50 of `O=C(NCc1ccn2ccnc2c1)Nc1ccc(O[C@@H]2CCN(C(=O)C3CC3)C2)cc1` with NAMPT (Homo sapiens, UniProt P43490)?
Data returned: 0.416

Data request: Would you please give the reported IC50 of `CCOCC(=O)N1CCC(c2ccc(NC(=O)C3CN(c4cccnc4)C3)cc2)CC1` with NAMPT (Homo sapiens, UniProt P43490)?
Data returned: 0.474

Data request: Would you please give the reported IC50 of `COCC(=O)N1CCC(c2ccc(NC(=O)C3CN(c4cccnn4)C3)cc2)CC1` with NAMPT (Homo sapiens, UniProt P43490)?
Data returned: 0.631

Data request: Would you please give the reported IC50 of CC(C)C(C)C(=O)N1CCC(c2ccc(C(=O)NCc3ccn4ccnc4c3)cc2)CC1 (centres unmarked) with NAMPT (Homo sapiens, UniProt P43490)?
Data returned: 0.202

Data request: Would you please give the reported IC50 of `COCCC(=O)N(CCCN1CCCC1=O)c1ncc(C(=O)NCCCn2ccnc2)s1` with NAMPT (Homo sapiens, UniProt P43490)?
Data returned: 0.251

Data request: Would you please give the reported IC50 of `COCCC(=O)N(CCC(=O)N1CCCC1)c1ncc(C(=O)NCCCn2ccnc2)s1` with NAMPT (Homo sapiens, UniProt P43490)?
Data returned: 0.338

Data request: Would you please give the reported IC50 of `CC(C)OCCNC(=O)N(Cc1ccc(F)cc1)c1ncc(C(=O)NCCCn2ccnc2)s1` with NAMPT (Homo sapiens, UniProt P43490)?
Data returned: 1.26

Data request: Would you please give the reported IC50 of `O=C(NC1CN(c2cccnc2)C1)c1ccc(OC2CCN(C(=O)CC3CCOCC3)CC2)cc1` with NAMPT (Homo sapiens, UniProt P43490)?
Data returned: 0.507

Data request: Would you please give the reported IC50 of `O=C(NCc1ccn2ccnc2c1)c1ccc(O[C@H]2CCN(C(=O)[C@@H]3CCCO3)C2)cc1` with NAMPT (Homo sapiens, UniProt P43490)?
Data returned: 0.719

Data request: Would you please give the reported IC50 of COc1ccc(C(CO)NC(=O)c2ccc(NC(=O)Nc3ccc4nccn4c3)cc2)cc1 (centres unmarked) with NAMPT (Homo sapiens, UniProt P43490)?
Data returned: 1.22

Data request: Would you please give the reported IC50 of `O=C(Nc1ccc(OC2CCN(C(=O)c3ccc(F)cc3)CC2)cc1)C1CN(c2ccnnc2)C1` with NAMPT (Homo sapiens, UniProt P43490)?
Data returned: 25.2

Data request: Would you please give the reported IC50 of `O=C(Nc1ccc(OC2CN(C(=O)c3ccccc3)C2)cc1)C1CN(c2ccnnc2)C1` with NAMPT (Homo sapiens, UniProt P43490)?
Data returned: 24.1

Data request: Would you please give the reported IC50 of `O=C(Nc1ccc(C2CCN(C(=O)Cc3ccc(C(F)(F)F)cc3)CC2)cc1)C1CN(c2cccnn2)C1` with NAMPT (Homo sapiens, UniProt P43490)?
Data returned: 0.438

Data request: Would you please give the reported IC50 of `O=C(Nc1ccc(C2CCN(C(=O)CC3CCCCC3)CC2)cc1)C1CN(c2cccnc2)C1` with NAMPT (Homo sapiens, UniProt P43490)?
Data returned: 0.169

Data request: Would you please give the reported IC50 of `COc1ccc(C(=O)N2CC(c3ccc(C(=O)NCc4ccn5ccnc5c4)cc3)C2)cc1` with NAMPT (Homo sapiens, UniProt P43490)?
Data returned: 0.998

Data request: Would you please give the reported IC50 of `C[Si]1(C)CN(C(=O)CCCCCNC(=O)/C=C/c2cccnc2)c2ccccc21` with NAMPT (Homo sapiens, UniProt P43490)?
Data returned: 141

Data request: Would you please give the reported IC50 of `CC[C@H](C)C(=O)N1CCC(Oc2ccc(NC(=O)NCc3ccn4ccnc4c3)cc2)CC1` with NAMPT (Homo sapiens, UniProt P43490)?
Data returned: 0.274

Data request: Would you please give the reported IC50 of `O=C(CCc1cccnc1)NCCCCCCN1c2ccccc2CCc2ccccc21` with NAMPT (Homo sapiens, UniProt P43490)?
Data returned: 100

Data request: Would you please give the reported IC50 of `O=C(NCc1ccn2ccnc2c1)c1ccc(-c2cnn(Cc3ccccc3)c2)o1` with NAMPT (Homo sapiens, UniProt P43490)?
Data returned: 0.647

Data request: Would you please give the reported IC50 of `Cn1cccc1C(=O)N1CCC(c2ccc(NC(=O)C3CN(c4cccnc4)C3)cc2)CC1` with NAMPT (Homo sapiens, UniProt P43490)?
Data returned: 0.61

Data request: Would you please give the reported IC50 of `O=C(NCc1ccc2nccn2c1)c1ccc(C2=CCN(C(=O)c3ccccc3)CC2)cc1` with NAMPT (Homo sapiens, UniProt P43490)?
Data returned: 2

Data request: Would you please give the reported IC50 of `CC(C)CC(=O)N1CCC(c2ccc(C(=O)NCc3ccn4ccnc4c3)cc2)CC1` with NAMPT (Homo sapiens, UniProt P43490)?
Data returned: 0.251

Data request: Would you please give the reported IC50 of CC1(C(=O)N2CCC(c3ccc(C(=O)NCc4ccn5ccnc5c4)cc3)C2)CC1 (centres unmarked) with NAMPT (Homo sapiens, UniProt P43490)?
Data returned: 0.756

Data request: Would you please give the reported IC50 of `CC(C)(C)OC(=O)N1CCC(c2ccc(NC(=O)NCc3cn4ccnc4cn3)cc2)CC1` with NAMPT (Homo sapiens, UniProt P43490)?
Data returned: 2.38

Data request: Would you please give the reported IC50 of O=C(CC1CCCO1)Nc1ccc(C(=O)NCc2ccc3nccn3c2)cc1 (centres unmarked) with NAMPT (Homo sapiens, UniProt P43490)?
Data returned: 2.88

Data request: Would you please give the reported IC50 of COCC(C)C(=O)N1CCC(Oc2ccc(C(=O)NCc3ccc4nccn4c3)cc2)CC1 (centres unmarked) with NAMPT (Homo sapiens, UniProt P43490)?
Data returned: 4.25

Data request: Would you please give the reported IC50 of `O=C(Nc1ccc(OC2CCN(C(=O)C3CCC(F)(F)CC3)CC2)cc1)C1CN(c2ccnnc2)C1` with NAMPT (Homo sapiens, UniProt P43490)?
Data returned: 35.7
